Cited source: patent EP3757216B1

- measurement_target: gamma-globulin preparation (The Chemo-Sero-Therapeutic Research Institute), a human antibody (human)
- assay_notes: ELISA on immobilised human gamma-globulin, anti-6His detection; antibody binding activity after acid treatment (pH 3.0, 72 h, 30 C) divided by that without treatment
Recorded RESIDUAL ACTIVITY [%] by entry
observable: RESIDUAL ACTIVITY [%] (%)

1. FcγRIIa-m11-Del4 (receptor) MGQAAAPPKAVLKLEPPWTNVLQEDSVTLTCQGASDSVLWFHNGNLIPTQTQLTYRFKATSNDSGEYTCQTGQTSLSDPVHLTVLSEWLVLQPPRLEFQEGETIMLRCHSWKDKPLVKVTFFQNGKSQKFSHLDPTFSIPQANHSHSGDYHCTGNIGYTSFSSKPVTITVQGGHHHHHH : 76.7
2. FcγRIIa-m11-Del2 (receptor) MGQAAAPPKAVLKLEPPWTNVLQEDSVTLTCQGARPSDSVLWFHNGNLIPTQTQLTYRFKATSNDSGEYTCQTGQTSLSDPVHLTVLSEWLVLQPPRLEFQEGETIMLRCHSWKDKPLVKVTFFQNGKSQKFSHLDPTFSIPQANHSHSGDYHCTGNIGYTSFSSKPVTITVQGGHHHHHH : 81.3
3. FcγRIIa-m11-Del1 (receptor) MGQAAAPPKAVLKLEPPWTNVLQEDSVTLTCQGARPESDSVLWFHNGNLIPTQTQLTYRFKATSNDSGEYTCQTGQTSLSDPVHLTVLSEWLVLQPPRLEFQEGETIMLRCHSWKDKPLVKVTFFQNGKSQKFSHLDPTFSIPQANHSHSGDYHCTGNIGYTSFSSKPVTITVQGGHHHHHH : 89.8
